organism: Bos taurus; test: Inhibition of TGF-beta-induced plasminogen activator inhibitor-1 production in BCAEC assessed as relative inhibitory potency in BCAEC at 2 uM after 24 hrs by ELISA relative to T-686; format: functional
measured.endpoint: Activity

Please review the following examples before continuing.
COC(=O)C(=C(/C)c1cc(OC)cc(OC)c1)/C(=C\c1ccccc1)C(=O)O; 0.3
COC(=O)C(=C(/C)c1cc(OC)cc(OC)c1)/C(=C\c1ccccc1)C(=O)Nc1cccnc1.Cl; 1.1
COC(=O)C(=C(/C)c1cc(OC)cc(OC)c1)/C(=C\c1ccccc1)C(=O)Nc1ccncc1.Cl; 1.1
COC(=O)C(=C(/C)c1cc(OC)c(OC)c(OC)c1)/C(=C\c1ccccc1)C(N)=O; 0.7
COC(=O)C(=C(/C)c1cc(OC)cc(OC)c1)/C(=C\c1ccncc1)C(N)=O.Cl; 1.1

// recorded Activity for `COC(=O)C(=C(/C)c1cc(OC)cc(OC)c1)/C(=C\c1ccccc1)C(=O)NN1CCN(C)CC1.Cl` : 0.9

// recorded Activity for `COC(=O)C(=C(/C)c1cc(OC)cc(OC)c1)/C(=C\c1ccccc1)C(=O)N1CCN(C)CC1` : 0.3

// recorded Activity for `COc1cc(OC)cc(/C(C)=C2\C(=O)N(Cc3cccnc3)C(=O)\C2=C\c2ccccc2)c1.Cl` : 1.4

// recorded Activity for `COc1cc(OC)cc(/C(C)=C2\C(=O)N(Cc3ccncc3)C(=O)\C2=C\c2ccccc2)c1.Cl` : 1.4

// recorded Activity for `COC(=O)C(=C(/C)c1cc(OC)cc(OC)c1)/C(=C\c1ccccc1)C(=O)NC1CCN(C)CC1` : < 0.1

// recorded Activity for `COC(=O)C(=C(/C)c1cc(OC)cc(OC)c1)/C(=C\c1ccccc1)C(=O)NCc1cccnc1.Cl` : 1.8

// recorded Activity for `COC(=O)C(=C(/C)c1cc(OC)cc(OC)c1)/C(=C\c1ccccc1)C(=O)NCc1ccncc1.Cl` : 1.9

// recorded Activity for `COC(=O)C(=C(/C)c1cc(OC)cc(OC)c1)/C(=C\c1cccnc1)C(N)=O` : 1.2

---

Recorded measurements of bioavailability, one per entry
test: Oral bioavailability in dog; type: ADME, organism-based, Canis lupus familiaris; conditions: in vivo
Give just the number in %; leave the unit off.

Please review the following examples before continuing.
COc1cc(OC)cc(/C(C)=C2\C(=O)N(Cc3ccncc3)C(=O)\C2=C\c2ccccc2)c1.Cl; 18
COC(=O)C(=C(/C)c1cc(OC)c(OC)c(OC)c1)/C(=C\c1ccccc1)C(N)=O; 9
COC(=O)C(=C(/C)c1cc(OC)cc(OC)c1)/C(=C\c1ccncc1)C(N)=O.Cl; 78
COc1cc(/C=C2/C(=O)NC(=O)/C2=C/c2ccccc2)cc(OC)c1OC; 3

// recorded bioavailability for `COC(=O)C(=C(/C)c1cc(OC)cc(OC)c1)/C(=C\c1ccccc1)C(=O)Nc1ccncc1.Cl` : 52

// recorded bioavailability for `COC(=O)C(=C(/C)c1cc(OC)cc(OC)c1)/C(=C\c1ccccc1)C(=O)NN1CCN(C)CC1.Cl` : 49

// recorded bioavailability for `COC(=O)C(=C(/C)c1cc(OC)cc(OC)c1)/C(=C\c1ccccc1)C(=O)NCc1ccncc1.Cl` : 28

// recorded bioavailability for `COC(=O)C(=C(/C)c1cc(OC)cc(OC)c1)/C(=C\c1ccccc1)C(=O)NCc1cccnc1.Cl` : 21

// recorded bioavailability for `COC(=O)C(=C(/C)c1cc(OC)cc(OC)c1)/C(=C\c1ccccc1)C(=O)Nc1cccnc1.Cl` : 17

The measured values listed here are drawn from ChEMBL document CHEMBL1157557.
